system: SK-MEL-28 melanoma; assay: NCI tumour cell line growth inhibition, 48 h
experimentalReadout: GI50

These solved cases illustrate the format of a correct answer.
[[record]]
compound = "O=C(Nc1ccc(Cl)cc1)Nc1ccc(Nc2nncc3ccccc23)cc1"
observedmeasurement = "3.04 µM"

[[record]]
compound = "COc1ccc2c(c1)C(=O)c1c-2c(N(C)C)nc2ccccc12"
observedmeasurement = "> 100 µM"

[[record]]
compound = "O=C(/C=C/c1ccc([N+](=O)[O-])cc1)c1ccc2c3c(cccc13)CC2"
observedmeasurement = "18.2 µM"


Challenge: I'd like to know its GI50. The compound in question is `CC[C@H](CO)Nc1nc(NCc2ccccc2)n2ncc(C(C)C)c2n1`
Response given: 1.16 µM

Challenge: I'd like to know its GI50. The compound in question is O=[N+]([O-])c1cccc([As]=[As]c2cccc([N+](=O)[O-])c2)c1 (configuration not stated)
Response given: 0.136 µM

Challenge: I'd like to know its GI50. The compound in question is `CCOc1ccccc1N=Nc1c(C)[nH]n(-c2nc(-c3ccccc3)cs2)c1=O`
Response given: > 84.9 µM

Challenge: I'd like to know its GI50. The compound in question is `O=C(NN1C(=O)CSC12CCCC2)c1[nH]c2ccc(Br)cc2c1-c1ccccc1`
Response given: 44 µM
